Organism: Rattus norvegicus
assay-info: Effective peroral dose for inhibition of conditioned avoidance response in rats
Format: functional
setup-conditions: po
Measured ED50, listed per entry.

compound	ED50
O=C(CCCN1CCN(c2ncc(Br)cn2)CC1)c1ccc(F)cc1	> 100 mg/kg
OC(CCCN1CCN(c2ncc(F)cn2)CC1)(c1ccc(F)cc1)c1ccc(F)cc1	> 100 mg/kg
O=C(CCCN1CCN(c2ncccn2)CC1)c1ccc(F)cc1	25.3 mg/kg
O=C(CCCN1CCN(c2ncc(F)cn2)CC1)c1ccc(F)cc1	36.3 mg/kg
Fc1ccc(/C=C(\CCN2CCN(c3ncccn3)CC2)c2ccc(F)cc2)cc1	> 100 mg/kg

Reported ED50 for OC(CCN1CCN(c2ncc(F)cn2)CC1)c1ccc(F)cc1 (stereo unspecified) : what is it? > 100 mg/kg

Now this one: CSc1nc(N2CCN(CCCC(=O)c3ccc(F)cc3)CC2)ncc1F > 100 mg/kg

Now this one: Fc1ccc(/C=C(\CCN2CCN(c3ncc(F)cn3)CC2)c2ccc(F)cc2)cc1 > 100 mg/kg

Now this one: Oc1nc(N2CCN(CCCC(O)c3ccc(F)cc3)CC2)ncc1F (stereo unspecified) > 100 mg/kg

Now this one: OC(CCCN1CCN(c2ncc(Br)cn2)CC1)c1ccc(F)cc1 (stereo unspecified) 50 mg/kg

Now this one: OC(CCCN1CCN(c2ncccn2)CC1)(c1ccc(F)cc1)c1ccc(F)cc1 52.9 mg/kg
